# ASSAY INFO: Acute toxicity (LD50)
# CONDITIONS USED: mouse, in vivo, ip; read-out: LD50 i.p.
Exercise: state measured LD50 for each of the compounds provided.

CCCc1cccc(O)c1O [R = Two H, R1 = n-Propyl, R2 = H]    > 500 mg/kg

Attention now shifts to the item below.
# LD50 lookup, item Cc1cccc(O)c1O [R = Two H, R1 = Methyl, R2 = H] > 200 mg/kg

----------
# Test system: production and secretion of NGF in brain astroglial cells
# ASSAY INFO: Promoting activity for the production and secretion of NGF in brain astroglial cells of mouse (ELISA)
# CONDITIONS USED: 48 h, read-out: Ratio of NGF increase, 48-hr culture, Table 4, 0.10 mM, 48-hr culture
Exercise: state measured fold induction at 100 µM for each of the compounds provided.
Answers are plain numbers.

CC(=O)Oc1ccc(C)cc1OC(C)=O [R = Two acetyl, R1 = H, R2 = Methyl]    77.3
Cc1ccc2c(c1)OC(C)(C)O2 [C(CH3)2 -, R1 = H, R2 = Methyl, 5,2,2-trimethyl-1,3-benzodioxol]    41.6
Cc1ccc2oc(=O)oc2c1 [CO-, R1 = H, R2 = Methyl, 4-methyl-o-phenylenecarbonate]    73.4
Cc1ccc(O)c(O)c1 [R = Two H, R1 = H, R2 = Methyl, 4-Methylcatechol]    106

Attention now shifts to the item below.
# fold induction at 100 µM lookup, item Cc1ccc2oc(=O)c(=O)oc2c1 [CO.CO-, R1 = H, R2 = Methyl, 6-methyl-1,4-benzodioxine-2,3-dione] 69.6
